Experiment: Cmax in C57BL/6 mouse plasma at 60 mg/kg
Assay type: ADME, organism-based, C57BL6
Parameters: dose 60 mg/kg

# chem_smiles, Cmax
data = [
    ("COc1ccc2nc(NC(=O)[C@H](CC3CCCC3)c3ccc(S(=O)(=O)N4CCN(C)CC4)cc3)sc2n1", "4.3 µM"),
]

====

Activity: recorded values
Target: Hexokinase-4 (Homo sapiens) (UniProt P35557)
Assay: Activation of His-tagged human recombinant liver glucokinase expressed in Escherichia coli BL21 (DE3) assessed as drug level required for half-maximal activation
Assay type: single protein
outcome_measure: Activity (nM)

# molecule, system_name, outcome_measure, quantitative_readout
data = [
    ("COc1ccc2nc(NC(=O)C(CC3CCCC3)c3ccc(S(=O)(=O)N4CCN(C)CC4)cc3)sc2n1 (centres undefined)", "Hexokinase-4 (Homo sapiens) (UniProt P35557)", "Activity", 39),
    ("COc1ccc2nc(NC(=O)C(CC3CCCC3)c3ccc(S(=O)(=O)N4CCOCC4)cc3)sc2n1 (centres undefined)", "Hexokinase-4 (Homo sapiens) (UniProt P35557)", "Activity", 153),
    ("COc1ccc2nc(NC(=O)C(CC3CCCC3)c3ccc(S(=O)(=O)N(C(C)C)C(C)C)cc3)sc2n1 (centres undefined)", "Hexokinase-4 (Homo sapiens) (UniProt P35557)", "Activity", 73),
    ("COc1ccc2nc(NC(=O)C(CC3CCCC3)c3ccc(S(=O)(=O)NC4CC4)cc3)sc2n1 (centres undefined)", "Hexokinase-4 (Homo sapiens) (UniProt P35557)", "Activity", 266),
    ("COc1ccc2nc(NC(=O)C(CC3CCCC3)c3ccc(S(=O)(=O)NCC(=O)O)cc3)sc2n1 (centres undefined)", "Hexokinase-4 (Homo sapiens) (UniProt P35557)", "Activity", 1860),
    ("COc1ccc2nc(NC(=O)C(CC3CCCC3)c3ccc(S(=O)(=O)N4CCCCC4)cc3)sc2n1 (centres undefined)", "Hexokinase-4 (Homo sapiens) (UniProt P35557)", "Activity", 66),
    ("COc1ccc2nc(NC(=O)C(CC3CCCC3)c3ccc(S(=O)(=O)NCc4cccnc4)cc3)sc2n1 (centres undefined)", "Hexokinase-4 (Homo sapiens) (UniProt P35557)", "Activity", 377),
    ("CCN(CC)S(=O)(=O)c1ccc(C(CC2CCCC2)C(=O)Nc2nc3ccc(OC)nc3s2)cc1 (centres undefined)", "Hexokinase-4 (Homo sapiens) (UniProt P35557)", "Activity", 42),
    ("COc1ccc2nc(NC(=O)C(CC3CCCC3)c3ccc(S(=O)(=O)NCCN(C)C)cc3)sc2n1 (centres undefined)", "Hexokinase-4 (Homo sapiens) (UniProt P35557)", "Activity", 117),
]

====

Experiment: AUC (0 to 24 hrs) in C57BL/6 mouse pancreas at 60 mg/kg
Type: ADME, organism-based, C57BL6
Set-up: time < 24 hr, dose 60 mg/kg
outcome_measure: AUC(0-t) at 24 h

# chem_smiles, result
data = [
    ("COc1ccc2nc(NC(=O)[C@H](CC3CCCC3)c3ccc(S(=O)(=O)N4CCN(C)CC4)cc3)sc2n1", "3230 µM·h"),
]

====

Activity: recorded values
Target: Hexokinase-4 (Homo sapiens)
Sequence (whole entry): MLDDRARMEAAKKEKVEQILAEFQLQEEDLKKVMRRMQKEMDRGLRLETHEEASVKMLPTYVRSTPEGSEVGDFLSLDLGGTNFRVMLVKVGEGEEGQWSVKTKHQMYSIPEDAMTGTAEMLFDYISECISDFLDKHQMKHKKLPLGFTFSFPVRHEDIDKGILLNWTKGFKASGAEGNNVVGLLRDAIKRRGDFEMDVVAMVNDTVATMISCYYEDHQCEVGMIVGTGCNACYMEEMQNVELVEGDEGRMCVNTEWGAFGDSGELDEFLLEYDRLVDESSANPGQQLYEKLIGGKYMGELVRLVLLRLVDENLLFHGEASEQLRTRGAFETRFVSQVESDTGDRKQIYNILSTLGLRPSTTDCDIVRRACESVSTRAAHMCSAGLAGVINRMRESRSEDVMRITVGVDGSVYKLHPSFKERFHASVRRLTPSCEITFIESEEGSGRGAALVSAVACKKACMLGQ
Test: Activation of His-tagged human recombinant liver glucokinase expressed in Escherichia coli BL21 (DE3) assessed as drug level required for half-maximal activation
Format: single protein
outcome_measure: Activity (nM)

# compound, system_name, unit_abbreviation, quantitative_readout
data = [
    ("CCCCN(CCCC)S(=O)(=O)c1ccc(C(CC2CCCC2)C(=O)Nc2nc3ccc(OC)nc3s2)cc1 (centres undefined)", "Hexokinase-4 (Homo sapiens)", "nM", 181),
    ("COc1ccc2nc(NC(=O)C(CC3CCCC3)c3ccc(S(=O)(=O)NC4CCOCC4)cc3)sc2n1 (centres undefined)", "Hexokinase-4 (Homo sapiens)", "nM", 305),
    ("COc1ccc2nc(NC(=O)[C@H](CC3CCCC3)c3ccc(S(=O)(=O)N4CCN(C)CC4)cc3)sc2n1", "Hexokinase-4 (Homo sapiens)", "nM", 23),
    ("COc1ccc2nc(NC(=O)C(CC3CCCC3)c3ccc(S(=O)(=O)Nc4cccnc4)cc3)sc2n1 (centres undefined)", "Hexokinase-4 (Homo sapiens)", "nM", 323),
]

====

logPm: recorded values
Test: Permeability at 5 to 10 uM at pH 4, 6.8 and 8 by PAMPA
Conditions: pH 4, 6.8, 8, 10 µM
outcome_measure: logPm

# compound, quantitative_readout
rows = [
    ("COc1ccc2nc(NC(=O)C(CC3CCCC3)c3ccc(S(=O)(=O)NCCN(C)C)cc3)sc2n1 (centres undefined)", -4.8),
    ("CCCC(=O)NS(=O)(=O)c1ccc(C(CC2CCCC2)C(=O)Nc2nc3ccc(OC)nc3s2)cc1 (centres undefined)", -4.4),
    ("COc1ccc2nc(NC(=O)C(CC3CCCC3)c3ccc(S(=O)(=O)N(C)Cc4nccn4C)cc3)sc2n1 (centres undefined)", -4.1),
    ("COc1ccc2nc(NC(=O)C(CC3CCCC3)c3ccc(S(=O)(=O)N4CCNCC4)cc3)sc2n1.Cl (centres undefined)", -4.9),
]

====

Assay: AUC (0 to 24 hrs) in C57BL/6 mouse muscle at 60 mg/kg
Assay type: ADME, organism-based, C57BL6, Muscle tissue
Parameters: time < 24 hr, dose 60 mg/kg

# chem_smiles, AUC(0-t) at 24 h, µM·h
records = [
    ("COc1ccc2nc(NC(=O)[C@H](CC3CCCC3)c3ccc(S(=O)(=O)N4CCN(C)CC4)cc3)sc2n1", 167),
]

====

Assay: Metabolic stability in human liver microsomes assessed as half life
Format: ADME, Microsome
outcome_measure: half-life (min)

# compound, unit_abbreviation, value_prefix, quantitative_readout
data = [
    ("CCN(CC)S(=O)(=O)c1ccc(C(CC2CCCC2)C(=O)Nc2nc3ccc(OC)nc3s2)cc1 (stereo not given)", "min", "=", 5.8),
    ("COCCNS(=O)(=O)c1ccc(C(CC2CCCC2)C(=O)Nc2nc3ccc(OC)nc3s2)cc1 (stereo not given)", "min", "=", 15.7),
    ("COc1ccc2nc(NC(=O)C(CC3CCCC3)c3ccc(S(=O)(=O)NC4CCOCC4)cc3)sc2n1 (stereo not given)", "min", "=", 13.1),
    ("COc1ccc2nc(NC(=O)C(CC3CCCC3)c3ccc(S(=O)(=O)NC4CC4)cc3)sc2n1 (stereo not given)", "min", "=", 19.5),
    ("COc1ccc2nc(NC(=O)C(CC3CCCC3)c3ccc(S(=O)(=O)NCc4cccnc4)cc3)sc2n1 (stereo not given)", "min", "<", 1.5),
]

====

Assay: Metabolic stability in human liver microsomes assessed as half life
Format: ADME, Microsome
Threshold 9 min. half-life below it: yes. half-life at it or above: no.

# molecule, classification
measured = [
    ("COc1ccc2nc(NC(=O)C(CC3CCCC3)c3ccc(S(=O)(=O)N(C)Cc4nccn4C)cc3)sc2n1 (stereo not drawn)", "yes"),
    ("COc1ccc2nc(NC(=O)C(CC3CCCC3)c3ccc(S(=O)(=O)N4CCCCC4)cc3)sc2n1 (stereo not drawn)", "yes"),
    ("COc1ccc2nc(NC(=O)C(CC3CCCC3)c3ccc(S(=O)(=O)NCCC(=O)O)cc3)sc2n1 (stereo not drawn)", "no"),
    ("COc1ccc2nc(NC(=O)C(CC3CCCC3)c3ccc(S(=O)(=O)N(C)CCO)cc3)sc2n1 (stereo not drawn)", "no"),
    ("COc1ccc2nc(NC(=O)C(CC3CCCC3)c3ccc(S(=O)(=O)N(C)Cc4ccccc4)cc3)sc2n1 (stereo not drawn)", "no"),
    ("CCCC(=O)NS(=O)(=O)c1ccc(C(CC2CCCC2)C(=O)Nc2nc3ccc(OC)nc3s2)cc1 (stereo not drawn)", "yes"),
    ("COc1ccc2nc(NC(=O)C(CC3CCCC3)c3ccc(S(=O)(=O)NC4CCCCC4)cc3)sc2n1 (stereo not drawn)", "yes"),
    ("COc1ccc2nc(NC(=O)C(CC3CCCC3)c3ccc(S(=O)(=O)NCc4cccs4)cc3)sc2n1 (stereo not drawn)", "no"),
    ("COc1ccc2nc(NC(=O)C(CC3CCCC3)c3ccc(S(=O)(=O)NCc4ccco4)cc3)sc2n1 (stereo not drawn)", "no"),
    ("COc1ccc2nc(NC(=O)C(CC3CCCC3)c3ccc(S(=O)(=O)NCC(=O)O)cc3)sc2n1 (stereo not drawn)", "no"),
    ("COc1ccc2nc(NC(=O)C(CC3CCCC3)c3ccc(S(=O)(=O)N4CCNCC4)cc3)sc2n1.Cl (stereo not drawn)", "yes"),
    ("CCC(=O)NS(=O)(=O)c1ccc(C(CC2CCCC2)C(=O)Nc2nc3ccc(OC)nc3s2)cc1 (stereo not drawn)", "yes"),
    ("COc1ccc2nc(NC(=O)C(CC3CCCC3)c3ccc(S(N)(=O)=O)cc3)sc2n1 (stereo not drawn)", "no"),
    ("COc1ccc2nc(NC(=O)C(CC3CCCC3)c3ccc(S(=O)(=O)N(C)Cc4ccco4)cc3)sc2n1 (stereo not drawn)", "yes"),
    ("COc1ccc2nc(NC(=O)C(CC3CCCC3)c3ccc(S(=O)(=O)NCc4ccncc4)cc3)sc2n1 (stereo not drawn)", "yes"),
    ("COc1ccc2nc(NC(=O)C(CC3CCCC3)c3ccc(S(=O)(=O)N(C)C)cc3)sc2n1 (stereo not drawn)", "no"),
]
